Molecular target: Protein cereblon/Indoleamine 2,3-dioxygenase 1 (Homo sapiens, UniProt P14902+Q96SW2)
Sequence (P14902 whole entry, looked up): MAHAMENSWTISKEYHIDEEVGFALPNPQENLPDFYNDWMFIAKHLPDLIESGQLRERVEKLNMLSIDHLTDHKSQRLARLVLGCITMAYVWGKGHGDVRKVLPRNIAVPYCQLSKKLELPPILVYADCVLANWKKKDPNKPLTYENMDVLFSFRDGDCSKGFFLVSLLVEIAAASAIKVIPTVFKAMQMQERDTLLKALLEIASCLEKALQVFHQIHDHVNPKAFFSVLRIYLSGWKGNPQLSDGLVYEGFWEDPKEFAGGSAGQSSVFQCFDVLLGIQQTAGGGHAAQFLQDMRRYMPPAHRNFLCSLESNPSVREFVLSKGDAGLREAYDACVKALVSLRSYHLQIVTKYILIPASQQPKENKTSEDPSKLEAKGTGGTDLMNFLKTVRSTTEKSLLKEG
Sequence (Q96SW2 whole entry, looked up): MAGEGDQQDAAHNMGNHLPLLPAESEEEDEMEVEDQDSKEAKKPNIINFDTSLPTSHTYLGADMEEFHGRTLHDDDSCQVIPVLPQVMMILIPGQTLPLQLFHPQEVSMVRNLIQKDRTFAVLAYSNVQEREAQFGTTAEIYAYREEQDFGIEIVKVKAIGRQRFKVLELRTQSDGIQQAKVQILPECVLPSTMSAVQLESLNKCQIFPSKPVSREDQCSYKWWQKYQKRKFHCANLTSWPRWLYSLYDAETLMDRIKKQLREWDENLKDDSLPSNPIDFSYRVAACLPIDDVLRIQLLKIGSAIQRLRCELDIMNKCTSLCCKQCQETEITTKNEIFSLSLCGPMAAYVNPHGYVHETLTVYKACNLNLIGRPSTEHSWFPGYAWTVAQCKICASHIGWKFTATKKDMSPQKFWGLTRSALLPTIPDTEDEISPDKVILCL
Experiment: Protac activity at IDO1/CRBN in IFNgamma-stimulated human U87 cells assessed as IDO1 degradation at 10 uM measured after 24 hrs by Western blotting analysis relative to control
Format: cell-based
quantity: Activity

Q: I would be grateful if you could share the reported Activity for C[C@@H](C(=O)Nc1ccc(OC2CCN(CCCOCCNC(=O)COc3cccc4c3C(=O)N(C3CCC(=O)NC3=O)C4=O)CC2)cc1)[C@H]1CC[C@@H](c2ccnc3ccc(F)cc32)CC1 (stereo partly specified) .
Ans: 66%

Q: I would be grateful if you could share the reported Activity for C[C@@H](C(=O)Nc1ccc(OCCOCCOCCOc2cccc3c2C(=O)N(C2CCC(=O)NC2=O)C3=O)cc1)[C@H]1CC[C@@H](c2ccnc3ccc(F)cc32)CC1 (stereo partly specified) .
Ans: 94%

Q: I would be grateful if you could share the reported Activity for C[C@@H](C(=O)Nc1ccc(Cl)c(OCCCCCCNc2cccc3c2C(=O)N(C2CCC(=O)NC2=O)C3=O)c1)[C@H]1CC[C@@H](c2ccnc3ccc(F)cc32)CC1 (stereo partly specified) .
Ans: 0%

Q: I would be grateful if you could share the reported Activity for C[C@@H](C(=O)Nc1ccc(OCCOCCOCCOCCOCCOCCOc2cccc3c2C(=O)N(C2CCC(=O)NC2=O)C3=O)cc1)[C@H]1CC[C@@H](c2ccnc3ccc(F)cc32)CC1 (stereo partly specified) .
Ans: 0%

Q: I would be grateful if you could share the reported Activity for C[C@@H](C(=O)Nc1ccc(OCCOCCOCCOCCOCCOCCNc2cccc3c2C(=O)N(C2CCC(=O)NC2=O)C3=O)cc1)[C@H]1CC[C@@H](c2ccnc3ccc(F)cc32)CC1 (stereo partly specified) .
Ans: 0%

Q: I would be grateful if you could share the reported Activity for C[C@@H](C(=O)Nc1ccc(OCCOCCOCCOCCOCCOCCNC(=O)COc2cccc3c2C(=O)N(C2CCC(=O)NC2=O)C3=O)cc1)[C@H]1CC[C@@H](c2ccnc3ccc(F)cc32)CC1 (stereo partly specified) .
Ans: 46%

---

Assay: Cmax in C57BL/6 mouse plasma at 25 mg/kg, ip
Type: ADME, organism-based
Set-up: dose 25 mg/kg, route ip
quantity: Cmax

Q: I would be grateful if you could share the reported Cmax for C[C@@H](C(=O)Nc1ccc(OC2CCN(C(=O)CCOCCOCCNc3cccc4c3C(=O)N(C3CCC(=O)NC3=O)C4=O)CC2)cc1)[C@H]1CC[C@@H](c2ccnc3ccc(F)cc32)CC1 (stereo partly specified) .
Ans: 365 µM

---

Target: von Hippel-Lindau disease tumor suppressor/Indoleamine 2,3-dioxygenase 1 (Homo sapiens) (UniProt P14902+P40337)
Sequence (P14902 whole entry, looked up): as the sequence (P14902 whole entry, looked up) above
Sequence (P40337 whole entry, looked up): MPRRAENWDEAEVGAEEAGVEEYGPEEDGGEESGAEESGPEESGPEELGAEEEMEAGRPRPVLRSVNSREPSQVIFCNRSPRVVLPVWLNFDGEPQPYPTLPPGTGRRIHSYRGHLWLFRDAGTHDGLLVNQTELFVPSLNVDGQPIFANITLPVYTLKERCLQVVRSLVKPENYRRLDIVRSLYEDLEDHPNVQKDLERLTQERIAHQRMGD
Assay: Protac activity at IDO1/VHL in IFNgamma-stimulated human U87 cells assessed as IDO1 degradation at 10 uM measured after 24 hrs by Western blotting analysis relative to control
Assay type: cell-based
quantity: Activity (%)
Field: numeric (%). Do not append units.

Q: I would be grateful if you could share the reported Activity for `Cc1ncsc1-c1ccc(CNC(=O)[C@@H]2C[C@@H](O)CN2C(=O)[C@@H](NCCOCCOCCOCCOCCOc2cc(NC(=O)[C@H](C)[C@H]3CC[C@@H](c4ccnc5ccc(F)cc54)CC3)ccc2Cl)C(C)(C)C)cc1` .
Ans: 0

Q: I would be grateful if you could share the reported Activity for `Cc1ncsc1-c1ccc(CNC(=O)[C@@H]2C[C@@H](O)CN2C(=O)[C@@H](NC(=O)C2(F)CC2)C(C)(C)C)c(OCCOCCOCCOCCOc2cc(NC(=O)[C@H](C)[C@H]3CC[C@@H](c4ccnc5ccc(F)cc54)CC3)ccc2Cl)c1` .
Ans: 0

Q: I would be grateful if you could share the reported Activity for `Cc1ncsc1-c1ccc(CNC(=O)[C@@H]2C[C@@H](O)CN2C(=O)[C@@H](NC(=O)C2(F)CC2)C(C)(C)C)c(OCCCCCCCCCOc2cc(NC(=O)[C@H](C)[C@H]3CC[C@@H](c4ccnc5ccc(F)cc54)CC3)ccc2Cl)c1` .
Ans: 90

Q: I would be grateful if you could share the reported Activity for `Cc1ncsc1-c1ccc(CNC(=O)[C@H]2C[C@H](O)CN2C(=O)[C@H](NCCCOc2cc(NC(=O)[C@H](C)[C@H]3CC[C@@H](c4ccnc5ccc(F)cc54)CC3)ccc2Cl)C(C)(C)C)cc1` .
Ans: 0

Q: I would be grateful if you could share the reported Activity for `Cc1ncsc1-c1ccc(CNC(=O)[C@@H]2C[C@@H](O)CN2C(=O)[C@@H](NC(=O)C2(F)CC2)C(C)(C)C)c(OCCOCCOc2ccc(NC(=O)[C@H](C)[C@H]3CC[C@@H](c4ccnc5ccc(F)cc54)CC3)cc2)c1` .
Ans: 39

Q: I would be grateful if you could share the reported Activity for `Cc1ncsc1-c1ccc(CNC(=O)[C@@H]2C[C@@H](O)CN2C(=O)[C@@H](NCCOCCOCCOCCOCCOc2ccc(NC(=O)[C@H](C)[C@H]3CC[C@@H](c4ccnc5ccc(F)cc54)CC3)cc2)C(C)(C)C)cc1` .
Ans: 0

Q: I would be grateful if you could share the reported Activity for `Cc1ncsc1-c1ccc(CNC(=O)[C@@H]2C[C@@H](O)CN2C(=O)[C@@H](NC(=O)C2(F)CC2)C(C)(C)C)c(OCCOCCOCCOc2cc(NC(=O)[C@H](C)[C@H]3CC[C@@H](c4ccnc5ccc(F)cc54)CC3)ccc2Cl)c1` .
Ans: 0

Q: I would be grateful if you could share the reported Activity for `Cc1ncsc1-c1ccc(CNC(=O)[C@H]2C[C@H](O)CN2C(=O)[C@H](NCCCCCCCCCOc2cc(NC(=O)[C@H](C)[C@H]3CC[C@@H](c4ccnc5ccc(F)cc54)CC3)ccc2Cl)C(C)(C)C)cc1` .
Ans: 3

Q: I would be grateful if you could share the reported Activity for `Cc1ncsc1-c1ccc(CNC(=O)[C@@H]2C[C@@H](O)CN2C(=O)[C@@H](NC(=O)C2(F)CC2)C(C)(C)C)c(OCCOCCOCCC(=O)N2CCC(Oc3ccc(NC(=O)[C@H](C)[C@H]4CC[C@@H](c5ccnc6ccc(F)cc65)CC4)cc3)CC2)c1` .
Ans: 3

Q: I would be grateful if you could share the reported Activity for `Cc1ncsc1-c1ccc(CNC(=O)[C@@H]2C[C@@H](O)CN2C(=O)[C@@H](NCCOCCOCCOCCOCCOCCOc2cc(NC(=O)[C@H](C)[C@H]3CC[C@@H](c4ccnc5ccc(F)cc54)CC3)ccc2Cl)C(C)(C)C)cc1` .
Ans: 0

Q: I would be grateful if you could share the reported Activity for `Cc1ncsc1-c1ccc(CNC(=O)[C@@H]2C[C@@H](O)CN2C(=O)[C@@H](NCCOCCOCCOc2ccc(NC(=O)[C@H](C)[C@H]3CC[C@@H](c4ccnc5ccc(F)cc54)CC3)cc2)C(C)(C)C)cc1` .
Ans: 0

Q: I would be grateful if you could share the reported Activity for `Cc1ncsc1-c1ccc(CNC(=O)[C@@H]2C[C@@H](O)CN2C(=O)[C@@H](NCCOCCOCCC(=O)N2CCC(Oc3ccc(NC(=O)[C@H](C)[C@H]4CC[C@@H](c5ccnc6ccc(F)cc65)CC4)cc3)CC2)C(C)(C)C)cc1` .
Ans: 67

Q: I would be grateful if you could share the reported Activity for `Cc1ncsc1-c1ccc(CNC(=O)[C@@H]2C[C@@H](O)CN2C(=O)[C@@H](NC(=O)C2(F)CC2)C(C)(C)C)c(OCCOCCC(=O)N2CC(Oc3ccc(NC(=O)[C@H](C)[C@H]4CC[C@@H](c5ccnc6ccc(F)cc65)CC4)cc3)C2)c1` .
Ans: 20

Q: I would be grateful if you could share the reported Activity for `Cc1ncsc1-c1ccc(CNC(=O)[C@@H]2C[C@@H](O)CN2C(=O)[C@@H](NCCOCCOCCOCCOc2cc(NC(=O)[C@H](C)[C@H]3CC[C@@H](c4ccnc5ccc(F)cc54)CC3)ccc2Cl)C(C)(C)C)cc1` .
Ans: 0

Q: I would be grateful if you could share the reported Activity for `Cc1ncsc1-c1ccc(CNC(=O)[C@@H]2C[C@@H](O)CN2C(=O)[C@@H](NC(=O)C2(F)CC2)C(C)(C)C)c(OCCOCCOCCOCCOCCOc2ccc(NC(=O)[C@H](C)[C@H]3CC[C@@H](c4ccnc5ccc(F)cc54)CC3)cc2)c1` .
Ans: 0

Q: I would be grateful if you could share the reported Activity for `Cc1ncsc1-c1ccc(CNC(=O)[C@@H]2C[C@@H](O)CN2C(=O)[C@@H](NC(=O)C2(F)CC2)C(C)(C)C)c(OCCCCCCCOc2ccc(NC(=O)[C@H](C)[C@H]3CC[C@@H](c4ccnc5ccc(F)cc54)CC3)cc2)c1` .
Ans: 41

Q: I would be grateful if you could share the reported Activity for `Cc1ncsc1-c1ccc(CNC(=O)[C@@H]2C[C@@H](O)CN2C(=O)[C@@H](NC(=O)C2(F)CC2)C(C)(C)C)c(OCCCCOc2ccc(NC(=O)[C@H](C)[C@H]3CC[C@@H](c4ccnc5ccc(F)cc54)CC3)cc2)c1` .
Ans: 10

Q: I would be grateful if you could share the reported Activity for `Cc1ncsc1-c1ccc(CNC(=O)[C@@H]2C[C@@H](O)CN2C(=O)[C@@H](NC(=O)C2(F)CC2)C(C)(C)C)c(OCCOCCCN2CCC(Oc3ccc(NC(=O)[C@H](C)[C@H]4CC[C@@H](c5ccnc6ccc(F)cc65)CC4)cc3)CC2)c1` .
Ans: 0
